Item-by-item account of pIC50
- measured.on: Lysine-specific demethylase 4A (Homo sapiens, UniProt O75164)
- assay.details: Inhibition of recombinant human JMJD2A using biotinylated histone H3 as substrate by AlphaScreen assay
pIC50: −log10 of the molar value.
observed.property: pIC50

cpd.smiles | measured.on | result.qualifier | recorded.measurement
CN(C)c1ccc(NC(=O)c2ccc3c(C(=O)O)ccc(O)c3n2)cc1 | Lysine-specific demethylase 4A (Homo sapiens, UniProt O75164) | < | 4.00
O=C(Nc1nc2ccccc2[nH]1)c1ccc2c(C(=O)O)ccc(O)c2n1 | Lysine-specific demethylase 4A (Homo sapiens, UniProt O75164) | = | 4.72
COc1ccc(NC(=O)c2ccc3c(C(=O)O)ccc(O)c3n2)cc1 | Lysine-specific demethylase 4A (Homo sapiens, UniProt O75164) | < | 4.00
O=C(Nc1cccc2ccccc12)c1ccc2c(C(=O)O)ccc(O)c2n1 | Lysine-specific demethylase 4A (Homo sapiens, UniProt O75164) | < | 4.00
Cc1ccc(NC(=O)c2ccc3c(C(=O)O)ccc(O)c3n2)nc1 | Lysine-specific demethylase 4A (Homo sapiens, UniProt O75164) | = | 5.21
CN(C)C(=O)c1ccc2c(C(=O)O)ccc(O)c2n1 | Lysine-specific demethylase 4A (Homo sapiens, UniProt O75164) | = | 5.43

----------
- assay.details: Permeability of the compound at 10 mM after 4 hrs by PAMPA
- Type: physicochemical
- applied.conditions: read-out: permeability
Papp at 4 h, 10000 µM listing for selected molecules.
observed.property: Papp at 4 h, 10000 µM (×10⁻⁶ cm/s)

cpd.smiles | recorded.measurement
O=C(Nc1ccccn1)c1ccc2c(C(=O)O)ccc(O)c2n1 | 2.9
O=C(Nc1nc2ccccc2[nH]1)c1ccc2c(C(=O)O)ccc(O)c2n1 | 6.7
CN(C)C(=O)c1ccc2c(C(=O)O)ccc(O)c2n1 | 3
CN1CCN(C(=O)c2ccc3c(C(=O)O)ccc(O)c3n2)CC1 | 3.3
CCN(CC)C(=O)c1ccc2c(C(=O)O)ccc(O)c2n1 | 2.3
O=C(NCCc1c[nH]c2ccccc12)c1ccc2c(C(=O)O)ccc(O)c2n1 | 3.6
Cc1ccccc1NC(=O)c1ccc2c(C(=O)O)ccc(O)c2n1 | 3.9
O=C(O)c1ccc(O)c2ncccc12 | 2

----------
Overview of recorded logD for various molecules
- assay.details: Partition co-efficient, log D of the compound at pH 7.4
- Format: physicochemical
- applied.conditions: buffer

cpd.smiles | logD
O=C(NCCc1c[nH]c2ccccc12)c1ccc2c(C(=O)O)ccc(O)c2n1 | 2.9
O=C(Nc1nc2ccccc2[nH]1)c1ccc2c(C(=O)O)ccc(O)c2n1 | 2.7
CN(C)C(=O)c1ccc2c(C(=O)O)ccc(O)c2n1 | 0.4
CN1CCN(C(=O)c2ccc3c(C(=O)O)ccc(O)c3n2)CC1 | 0.3
Cc1ccccc1NC(=O)c1ccc2c(C(=O)O)ccc(O)c2n1 | 3
CCN(CC)C(=O)c1ccc2c(C(=O)O)ccc(O)c2n1 | 1.5
O=C(Nc1ccccn1)c1ccc2c(C(=O)O)ccc(O)c2n1 | 1.2
O=C(O)c1ccc(O)c2ncccc12 | -1.9

----------
- measured.on: UniProt Q9GZT9
- Sequence (Q9GZT9 2-426 limits assumed): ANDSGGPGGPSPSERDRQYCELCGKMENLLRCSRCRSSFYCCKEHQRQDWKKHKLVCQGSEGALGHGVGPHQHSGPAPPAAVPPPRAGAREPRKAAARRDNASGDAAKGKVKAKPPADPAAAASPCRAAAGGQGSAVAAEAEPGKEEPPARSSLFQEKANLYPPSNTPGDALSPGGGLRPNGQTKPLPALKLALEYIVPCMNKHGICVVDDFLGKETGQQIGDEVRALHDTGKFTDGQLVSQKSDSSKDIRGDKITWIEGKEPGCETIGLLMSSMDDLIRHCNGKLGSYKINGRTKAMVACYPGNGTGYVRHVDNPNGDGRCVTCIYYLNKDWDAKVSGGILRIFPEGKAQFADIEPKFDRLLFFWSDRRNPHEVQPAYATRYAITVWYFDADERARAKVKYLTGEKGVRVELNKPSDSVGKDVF
- assay.details: Displacement of F-HIF1alpha from PHD2 (unknown origin) at 50 uM by fluorescence polarization assay relative to control
observed.property: inhibition (%)

cpd.smiles | recorded.measurement
O=C(O)c1ccc(O)c2ncccc12 | 66.3
O=C(NCCc1c[nH]c2ccccc12)c1ccc2c(C(=O)O)ccc(O)c2n1 | 20.6
O=C(Nc1ccccn1)c1ccc2c(C(=O)O)ccc(O)c2n1 | 24
CN(C)C(=O)c1ccc2c(C(=O)O)ccc(O)c2n1 | 17.6
O=C(Nc1nc2ccccc2[nH]1)c1ccc2c(C(=O)O)ccc(O)c2n1 | 25
CCN(CC)C(=O)c1ccc2c(C(=O)O)ccc(O)c2n1 | 23.9
O=C(O)c1ccc(O)c2nc(C(=O)N3CCOCC3)ccc12 | 9.1
Cc1ccc(NC(=O)c2ccc3c(C(=O)O)ccc(O)c3n2)nc1 | 23.5
CN1CCN(C(=O)c2ccc3c(C(=O)O)ccc(O)c3n2)CC1 | 18.7

----------
- measured.on: Lysine-specific demethylase 4A (Homo sapiens, UniProt O75164)
- assay.details: Inhibition of recombinant human JMJD2A using biotinylated histone H3 as substrate by AlphaScreen assay
Recorded IC50 by entry
observed.property: IC50

cpd.smiles | observed.property | recorded.measurement
O=C(Nc1ccc(F)cc1)c1ccc2c(C(=O)O)ccc(O)c2n1 | IC50 | > 100 µM
O=C(NCCCN1CCOCC1)c1ccc2c(C(=O)O)ccc(O)c2n1 | IC50 | 82 µM
O=C(Nc1ccccc1)c1ccc2c(C(=O)O)ccc(O)c2n1 | IC50 | > 100 µM
O=C(NC1CCCCC1)c1ccc2c(C(=O)O)ccc(O)c2n1 | IC50 | > 100 µM
O=C(Nc1ccccc1F)c1ccc2c(C(=O)O)ccc(O)c2n1 | IC50 | > 100 µM
Cc1ccc(NC(=O)c2ccc3c(C(=O)O)ccc(O)c3n2)cc1 | IC50 | > 100 µM
O=C(Nc1ccc(OC(F)(F)F)cc1)c1ccc2c(C(=O)O)ccc(O)c2n1 | IC50 | > 100 µM
Cc1cccc(NC(=O)c2ccc3c(C(=O)O)ccc(O)c3n2)c1 | IC50 | > 100 µM
O=C(Nc1ccccn1)c1ccc2c(C(=O)O)ccc(O)c2n1 | IC50 | 2.8 µM
CCN(CC)C(=O)c1ccc2c(C(=O)O)ccc(O)c2n1 | IC50 | 1.8 µM
O=C(NCCc1c[nH]c2ccccc12)c1ccc2c(C(=O)O)ccc(O)c2n1 | IC50 | 24 µM

----------
- measured.on: UniProtKB O75164
- Sequence (O75164 whole entry): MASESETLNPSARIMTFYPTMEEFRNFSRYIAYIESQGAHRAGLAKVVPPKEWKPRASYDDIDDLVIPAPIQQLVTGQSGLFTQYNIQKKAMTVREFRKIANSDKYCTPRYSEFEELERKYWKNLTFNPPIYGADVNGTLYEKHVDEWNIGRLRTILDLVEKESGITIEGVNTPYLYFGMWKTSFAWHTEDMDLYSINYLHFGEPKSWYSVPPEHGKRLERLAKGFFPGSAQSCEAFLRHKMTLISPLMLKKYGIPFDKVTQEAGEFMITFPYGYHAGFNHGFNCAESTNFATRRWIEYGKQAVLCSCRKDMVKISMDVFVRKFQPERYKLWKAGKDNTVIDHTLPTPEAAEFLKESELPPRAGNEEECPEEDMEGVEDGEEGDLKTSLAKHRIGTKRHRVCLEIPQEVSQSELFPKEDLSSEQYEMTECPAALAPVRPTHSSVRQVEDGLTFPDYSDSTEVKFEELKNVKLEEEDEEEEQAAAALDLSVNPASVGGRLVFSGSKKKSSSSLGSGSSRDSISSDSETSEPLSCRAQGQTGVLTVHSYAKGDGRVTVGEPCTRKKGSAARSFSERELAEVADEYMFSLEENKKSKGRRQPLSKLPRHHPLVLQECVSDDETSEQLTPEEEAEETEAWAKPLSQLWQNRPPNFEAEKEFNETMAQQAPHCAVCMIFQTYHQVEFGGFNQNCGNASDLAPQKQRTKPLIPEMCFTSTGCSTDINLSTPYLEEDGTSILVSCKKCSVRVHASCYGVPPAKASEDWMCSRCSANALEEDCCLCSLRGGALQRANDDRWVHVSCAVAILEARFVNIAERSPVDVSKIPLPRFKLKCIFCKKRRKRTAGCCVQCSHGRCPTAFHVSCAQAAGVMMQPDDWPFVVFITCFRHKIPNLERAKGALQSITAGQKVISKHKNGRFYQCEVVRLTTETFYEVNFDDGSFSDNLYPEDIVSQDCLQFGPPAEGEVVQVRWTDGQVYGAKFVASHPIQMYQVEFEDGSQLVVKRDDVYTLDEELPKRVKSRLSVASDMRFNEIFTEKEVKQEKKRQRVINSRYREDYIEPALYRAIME
- assay.details: Inhibition of recombinant human JMJD2A using biotinylated histone H3 as substrate by AlphaScreen assay
pIC50: −log10 of the molar value.
# pIC50 listing for each entry below

cpd.smiles | measured.on | result.qualifier | pIC50
COc1cccc(NC(=O)c2ccc3c(C(=O)O)ccc(O)c3n2)c1 | UniProtKB O75164 | < | 4.00
O=C(NCc1ccccc1)c1ccc2c(C(=O)O)ccc(O)c2n1 | UniProtKB O75164 | < | 4.00
CN1CCN(C(=O)c2ccc3c(C(=O)O)ccc(O)c3n2)CC1 | UniProtKB O75164 | = | 5.80
Cc1ccccc1NC(=O)c1ccc2c(C(=O)O)ccc(O)c2n1 | UniProtKB O75164 | < | 4.00
O=C(O)c1ccc(O)c2nc(C(=O)N3CCOCC3)ccc12 | UniProtKB O75164 | = | 5.29

----------
- assay.details: Intrinsic aqueous solubility of the compound after 24 hrs by UV spectrophotometric analysis
- Assay type: physicochemical
- applied.conditions: read-out: Intrinsic_solubility
observed.property: solubility at 24 h (µM)

cpd.smiles | observed.property | units.of.measure | recorded.measurement
CN1CCN(C(=O)c2ccc3c(C(=O)O)ccc(O)c3n2)CC1 | solubility at 24 h | µM | 4900
O=C(O)c1ccc(O)c2ncccc12 | solubility at 24 h | µM | 1200
O=C(Nc1nc2ccccc2[nH]1)c1ccc2c(C(=O)O)ccc(O)c2n1 | solubility at 24 h | µM | 1300
O=C(NCCc1c[nH]c2ccccc12)c1ccc2c(C(=O)O)ccc(O)c2n1 | solubility at 24 h | µM | 900
CN(C)C(=O)c1ccc2c(C(=O)O)ccc(O)c2n1 | solubility at 24 h | µM | 3800
O=C(Nc1ccccn1)c1ccc2c(C(=O)O)ccc(O)c2n1 | solubility at 24 h | µM | 1200
Cc1ccccc1NC(=O)c1ccc2c(C(=O)O)ccc(O)c2n1 | solubility at 24 h | µM | 700
CCN(CC)C(=O)c1ccc2c(C(=O)O)ccc(O)c2n1 | solubility at 24 h | µM | 3600
